What follows is literature data on IC50 for UniProt G1T351.
attributeMeasured: IC50 (nM)

Some solved cases for reference:
Cc1cc(Cn2cnc3c2C[C@@H](C(=O)O)N(C(=O)C(c2ccc(F)cc2)c2ccc(F)cc2)C3)ccc1N(C)C | 38
COc1ccc2c(c1OCc1ccccc1)CC(C(=O)O)N(C(=O)C(c1ccc(Cl)cc1)c1ccc(Cl)cc1)C2 (racemic) | 24.2
COc1ccc(NC(=O)N2Cc3ccc(OC)c(OCc4ccccc4)c3CC2C(=O)O)cc1 (racemic) | 1110
Cc1cc(Cn2cnc3c2C[C@@H](C(=O)O)N(C(=O)C(c2ccccc2)c2ccccc2)C3)ccc1N | 32
CCCc1nc(SC)c(C(=O)C[S+]([O-])c2ccccc2)n1Cc1ccc(-c2ccccc2S(=O)(=O)NC(=O)NCc2cccs2)cc1 (stereo not drawn) | 2.2
O=C(O)[C@@H]1Cc2c(ncn2CCC23CC4CC(CC(C4)C2)C3)CN1C(=O)C(c1ccccc1)c1ccccc1 | 91

A = Cc1cc(Cn2cnc3c2C[C@@H](C(=O)O)N(C(=O)C(c2ccccc2)c2ccccc2)C3)cc(I)c1O
B = COc1ccc2c(c1OCCc1ccccc1)CC(C(=O)O)N(C(=O)C(c1ccccc1)c1ccccc1)C2 (racemic)
Between A and B , whose measured IC50 reads higher? The response must carry the label of the picked entry.
A

---

What follows is literature data on IC50 for UniProtKB G1T351.
attributeMeasured: IC50 (nM)

Some solved cases for reference:
CCCCc1nc(SC)c(C(=O)CC(=O)OCC)n1Cc1ccc(-c2ccccc2S(=O)(=O)NC(=O)NCCC)cc1 | 83
CCCCc1nc(SC)c(C(=O)Nc2nnn[nH]2)n1Cc1ccc(-c2ccccc2S(=O)(=O)NC(=O)NCCC)cc1 | 24
COc1ccc2c(c1OCc1ccccc1)CC(C(=O)O)N(C(=O)C(c1ccccc1)C1CCCC1)C2 (racemic) | 1.6
COc1ccc(Cn2cnc3c2C[C@@H](C(=O)O)N(C(=O)Cc2ccccc2)C3)cc1C | 95
CCCc1nc(SC)c(C(=O)C[S+]([O-])c2ccccc2)n1Cc1ccc(-c2ccccc2S(=O)(=O)NC(=O)CCC2CCCC2)cc1 (racemic) | 2.09

I = COc1ccc2c(c1OCc1ccccc1)CC(C(=O)O)N(C(=O)C(c1ccccc1)c1ccccc1)C2 (racemic)
II = CCCCc1nc(SC)c(C(=O)C(=O)O)n1Cc1ccc(-c2ccccc2S(=O)(=O)NC(=O)NCc2ccccc2)cc1
Hi, I'm comparing two records. Which one has the lower IC50, I or II ? The response must carry the label of the picked entry.
I
(I: 2.8 nM, II: 38 nM)
